Target: OATP1B1 (Homo sapiens, UniProt Q9Y6L6)
Sequence (Q9Y6L6 1-691): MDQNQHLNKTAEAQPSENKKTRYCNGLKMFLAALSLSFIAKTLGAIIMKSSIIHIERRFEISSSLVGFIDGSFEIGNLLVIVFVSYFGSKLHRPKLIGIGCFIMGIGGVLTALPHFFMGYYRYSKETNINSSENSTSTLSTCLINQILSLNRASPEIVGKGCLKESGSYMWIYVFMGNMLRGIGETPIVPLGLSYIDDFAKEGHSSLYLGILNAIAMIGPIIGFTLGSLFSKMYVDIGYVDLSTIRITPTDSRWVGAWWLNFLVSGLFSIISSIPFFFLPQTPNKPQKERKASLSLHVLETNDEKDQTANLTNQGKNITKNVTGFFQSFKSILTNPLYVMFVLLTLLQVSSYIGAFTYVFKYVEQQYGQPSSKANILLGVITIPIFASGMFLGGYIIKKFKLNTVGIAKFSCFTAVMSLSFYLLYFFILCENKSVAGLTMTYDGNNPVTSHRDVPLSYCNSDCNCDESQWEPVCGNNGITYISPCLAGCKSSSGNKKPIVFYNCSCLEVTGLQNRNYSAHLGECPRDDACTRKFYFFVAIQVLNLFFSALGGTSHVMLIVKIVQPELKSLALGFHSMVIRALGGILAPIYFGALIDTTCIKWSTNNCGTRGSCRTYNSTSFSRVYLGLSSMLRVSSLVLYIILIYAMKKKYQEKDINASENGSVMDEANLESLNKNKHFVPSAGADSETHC
quantity measured: IC50 (µM)
# number only, unit µM dropped from output

Entry CC(C)c1cc(Oc2c(Cl)cc(-n3nc(C#N)c(=O)[nH]c3=O)cc2Cl)n[nH]c1=O : reported IC50 = ? 3.7
